Experiment: Solubility of Compound 1 in various solvents
Format: physicochemical
Conditions: NMP, 50 °C, organic solvent or mixture; read-out: Solubility at 50° C.
property.measured: solubility

Give the reported solubility for this molecule. O=C(NCc1ncn2ccc(Cl)c(F)c12)c1cn(Cc2cn3cc(C4CC4)ccc3n2)nn1 [Compound 1] > 10000 µg/mL

* * *

Assay: Gravimetric vapour sorption (GVS) analysis
Format: physicochemical
Details: change of solid form after GVS

{"columns": ["test.smiles", "XRPD post GVS analysis"],
 "data": [
  ["O=C(NCc1ncn2ccc(Cl)c(F)c12)c1cn(Cc2cn3cc(C4CC4)ccc3n2)nn1.O=C(O)/C=C/C(=O)O", "no observed change"],
  ["O=C(NCc1ncn2ccc(Cl)c(F)c12)c1cn(Cc2cn3cc(C4CC4)ccc3n2)nn1.O=C(O)C[C@H](O)C(=O)O", "no observed change"]
]}
